MRT listing for selected compounds.
TEST: MRT in Wistar rat
Format: ADME
REPORTED CONDITIONS: in vivo
Note: unit h is implicit; provide only the numeric part.

Enquiry: Data request, read-out MRT, for `CNC(=O)c1c(-c2ccc(F)cc2)oc2cc(N(C)S(C)(=O)=O)c(-c3ccc4nc(C)n(Cc5ccc(F)cc5)c(=O)c4c3)cc12`
Return: 2.84

Enquiry: Try this compound too: CNC(=O)c1c(-c2ccc(F)cc2)oc2cc(N(C)S(C)(=O)=O)c(-c3ccc4c(n3)-c3cc5c(F)cccc5n3CO4)cc12 [MK-8876]
Return: 18.1

---

TEST: Volume of distribution in Wistar rat
Format: ADME
REPORTED CONDITIONS: in vivo
Below: a set of entries, each annotated with reported Vd.
Respond numerically; units are L/kg and should not be typed.

CNC(=O)c1c(-c2ccc(F)cc2)oc2cc(N(C)S(C)(=O)=O)c(-c3ccc4c(n3)-c3cc5c(F)cccc5n3CO4)cc12: 5.79

Please examine the following record next.
Enquiry: Look up Vd for this molecule: `CNC(=O)c1c(-c2ccc(F)cc2)oc2cc(N(C)S(C)(=O)=O)c(-c3ccc4nc(C)n(Cc5ccc(F)cc5)c(=O)c4c3)cc12`
Return: 4.28

---

Measured AUC accompanies every entry in the list below.
TEST: AUC in Wistar rat
Type: ADME
REPORTED CONDITIONS: in vivo
Returns: string containing the number followed by the unit.

CNC(=O)c1c(-c2ccc(F)cc2)oc2cc(N(C)S(C)(=O)=O)c(-c3ccc4nc(C)n(Cc5ccc(F)cc5)c(=O)c4c3)cc12: 1.06 µM·h

Now consider a different compound.
Enquiry: # input compound: CNC(=O)c1c(-c2ccc(F)cc2)oc2cc(N(C)S(C)(=O)=O)c(-c3ccc4c(n3)-c3cc5c(F)cccc5n3CO4)cc12 [MK-8876] ; wanted: its AUC
Return: 3.92 µM·h

---

Reported clearance values follow for various compounds
TEST: Clearance in Wistar rat
Format: ADME
REPORTED CONDITIONS: in vivo
A number alone suffices; assume mL/min/kg.

CNC(=O)c1c(-c2ccc(F)cc2)oc2cc(N(C)S(C)(=O)=O)c(-c3ccc4nc(C)n(Cc5ccc(F)cc5)c(=O)c4c3)cc12: 27.4

Enquiry: So what's the measured clearance for this one? CNC(=O)c1c(-c2ccc(F)cc2)oc2cc(N(C)S(C)(=O)=O)c(-c3ccc4c(n3)-c3cc5c(F)cccc5n3CO4)cc12 [MK-8876]
Return: 7.03

Value source: ChEMBL document CHEMBL4627285
